Target: CYP2C9 (Homo sapiens, UniProt P11712)
Sequence (P11712 whole entry): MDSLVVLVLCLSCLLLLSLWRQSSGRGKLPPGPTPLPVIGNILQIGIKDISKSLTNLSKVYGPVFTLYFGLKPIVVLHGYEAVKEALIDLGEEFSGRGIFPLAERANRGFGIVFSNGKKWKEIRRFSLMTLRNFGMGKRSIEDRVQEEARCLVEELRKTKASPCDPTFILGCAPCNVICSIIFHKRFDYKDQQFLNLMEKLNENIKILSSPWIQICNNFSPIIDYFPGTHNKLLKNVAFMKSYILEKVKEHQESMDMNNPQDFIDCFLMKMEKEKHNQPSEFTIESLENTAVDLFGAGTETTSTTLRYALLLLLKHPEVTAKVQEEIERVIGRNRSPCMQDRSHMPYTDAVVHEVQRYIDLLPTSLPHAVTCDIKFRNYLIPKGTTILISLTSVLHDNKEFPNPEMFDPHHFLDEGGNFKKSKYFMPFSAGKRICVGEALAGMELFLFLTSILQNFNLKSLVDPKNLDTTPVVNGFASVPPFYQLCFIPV
Test: Inhibition of CYP2C9 (unknown origin) assessed as enzyme activity at 10 uM relative to control
Format: ADME
Set-up: scale not given: the % may be the effect or the level left
Conditions: read-out: Activity
parameter: activity at 10 µM

Some compounds with known activity at 10 µM results, for comparison:
IN: Recorded activity at 10 µM for COc1ccc(S(=O)(=O)/C=C/c2ncccc2Cl)nc1 with CYP2C9 (Homo sapiens, UniProt P11712), please?
OUT: > 99%

IN: Now the compound COc1ccnc(S(=O)(=O)/C=C/c2ccc(Cl)cc2)c1
OUT: > 99%

IN: Try the compound COc1ncccc1S(=O)(=O)/C=C/c1ncccc1C(F)(F)F
OUT: > 99%

IN: Thanks! And COc1cccnc1S(=O)(=O)/C=C/c1ncccc1Cl ?
OUT: > 99%

Continuing:
IN: Request: activity at 10 µM, test system CYP2C9 (Homo sapiens, UniProt P11712), entry COc1ccnc(S(=O)(=O)/C=C/c2cccc(Cl)c2)c1
OUT: > 99%

IN: Same thing, different compound: COc1ncccc1S(=O)(=O)/C=C/c1ncccc1Cl
OUT: > 99%

Origin of measurements: ChEMBL document CHEMBL5370549
